# target: NTRK3 (human)
# experiment.notes: radiometric filter-binding kinase assay, Kinase HotSpot
# run.conditions: compound 0.5 µM; ATP 10 µM
test.readout: residual activity (%)
Answers are plain numbers, in %.

Look over these answered cases.
structure.string | residual activity (%)
CCCNC(=O)Nc1ccc(Oc2ncnc3cc(OC)c(OC)cc23)cc1Cl | 89
Cc1cc2ncc(-c3ccccc3)nc2cc1C | 88.2

Kindly consider the entry below.
For `CCN1/C(=C/C(C)=O)Sc2ccc(OC)cc21` , what is its reported residual activity?
91.9

###

Exercise: state measured residual activity for each of the molecules provided.
# target: MAP3K3 (human)
# experiment.notes: radiometric filter-binding kinase assay, Kinase HotSpot
# run.conditions: compound 0.5 µM; ATP 10 µM
Write the figure, then the unit, nothing else.

// known answers, use as guide
molecule | residual activity
COc1cc2ncnc(Nc3ccc(F)c(Cl)c3)c2cc1OCCCN1CCOCC1 | 107%
CC(C)[C@H](CO)Nc1nc(Nc2cccc(Cl)c2)c2ncn(C(C)C)c2n1 | 102%
Cc1cc2ncc(-c3ccccc3)nc2cc1C | 103%
O=C1Nc2cc(Br)ccc2/C1=C1/Nc2ccccc2/C1=N\O | 107%
CSc1nc(-c2ccc(F)cc2)c(-c2ccnc(NC(C)c3ccccc3)c2)[nH]1 (stereo unspecified) | 80%
Oc1ccc(-c2nc(-c3ccc(F)cc3)c(-c3ccncc3)[nH]2)cc1 | 103%
CS(=O)c1ccc(-c2nc(-c3ccc(F)cc3)c(-c3ccncc3)[nH]2)cc1 (stereo unspecified) | 102%
CCCNC(=O)Nc1ccc(Oc2ncnc3cc(OC)c(OC)cc23)cc1Cl | 95.3%
O=C1Nc2ccccc2/C1=C\c1c(Cl)[nH]c2ccccc12 | 112%
CCN1/C(=C/C(C)=O)Sc2ccc(OC)cc21 | 114%

// below: residual activity requested for another molecule
State the recorded residual activity for this entry: `NC(=O)c1ccc(N(C(N)=O)c2c(F)cccc2F)nc1-c1ccc(F)cc1F`
118%

###

Kindly supply the reported residual activity values for the records listed here.
# target: TSSK1B (human) (UniProt Q9BXA7)
# Sequence (Q9BXA7 whole entry, looked up): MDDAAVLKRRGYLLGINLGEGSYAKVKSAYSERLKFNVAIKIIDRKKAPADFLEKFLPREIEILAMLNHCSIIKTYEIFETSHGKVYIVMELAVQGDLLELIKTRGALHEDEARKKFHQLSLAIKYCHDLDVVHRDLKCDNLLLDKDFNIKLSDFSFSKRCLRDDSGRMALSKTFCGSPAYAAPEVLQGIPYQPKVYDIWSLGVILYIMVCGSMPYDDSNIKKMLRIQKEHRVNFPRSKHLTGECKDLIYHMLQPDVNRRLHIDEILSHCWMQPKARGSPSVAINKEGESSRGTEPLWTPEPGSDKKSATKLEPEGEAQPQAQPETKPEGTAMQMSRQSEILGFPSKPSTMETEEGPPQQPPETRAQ
# experiment.notes: radiometric filter-binding kinase assay, Kinase HotSpot
# run.conditions: compound 0.5 µM; ATP 10 µM
Give bare numbers, in %.

structure.string | residual activity [%]
NC(=O)c1ccc(N(C(N)=O)c2c(F)cccc2F)nc1-c1ccc(F)cc1F | 83
Clc1ccc(Nc2nnc(Cc3ccncc3)c3ccccc23)cc1 | 94.8
Nc1n[nH]c2nnc(-c3c(-c4ccccc4)nn4ccccc34)cc12 | 102
COc1ccc(-c2cnc3c(-c4ccsc4)cnn3c2)cc1 | 99.1
Nc1nc(Nc2ccc(S(N)(=O)=O)cc2)nn1C(=O)c1c(F)cccc1F | 85.5
COc1cc2nccc(Oc3ccc(NC(=S)NC(=O)c4ccccc4C)cc3)c2cc1OC | 83.6
Nc1nc(Nc2ccc(S(N)(=O)=O)cc2)nn1C(=S)Nc1c(F)cccc1F | 13.7
O=c1cc(-c2cccc3c2Sc2ccccc2S3)oc(N2CCOCC2)c1 | 107
CC(C)n1cnc2c(Nc3cccc(Cl)c3)nc(NCCO)nc21 | 91.9
O=C1Nc2cc(Br)ccc2/C1=C1/Nc2ccccc2/C1=N\O | 83

For every item in the list below, what is its measured residual activity?
1. O=C1Cc2c([nH]c3ccc([N+](=O)[O-])cc23)-c2ccccc2N1
2. COc1cc2ncnc(Nc3ccc(F)c(Cl)c3)c2cc1OCCCN1CCOCC1
3. CC(C)[C@H](CO)Nc1nc(Nc2cccc(Cl)c2)c2ncn(C(C)C)c2n1
4. O=c1cc(N2CCNCC2)oc2c(-c3ccccc3)cccc12

1: 74.7; 2: 90; 3: 102; 4: 89.5
